Target: T1, recombinant human TIGIT (human, UniProt Q495A1 22-141, limits assumed)
T1 construct: recombinant human TIGIT used in Carterra SPR; also called hTIGIT
T1 sequence (looked up): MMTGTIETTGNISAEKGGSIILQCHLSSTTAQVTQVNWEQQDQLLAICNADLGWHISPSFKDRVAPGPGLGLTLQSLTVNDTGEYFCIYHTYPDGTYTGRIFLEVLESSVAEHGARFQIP
Experiment: SPR Carterra, average
Record form. Attribute: kon. Fill in for each entry.
Hi, when you answer, please include the unit after the number. Thanks!

Which measured kon value corresponds to TIGIT-SC214 (Fc fusion, VHH-Fc fusion in assay) VHH: EVQLVESGGGLVQPGGSLRLSCAASGFTFGDSWMGWFRQAPGKEHEFVAAIWRSGTLKAYADSVKGRFTISADNSKNTAYLQMNSLKPEDTAVYYCTSYDAVAGTRDFWGQGTLVTVSS ?
4.05e+06 M⁻¹ s⁻¹

Continuing:
Which measured kon value corresponds to TIGIT-SC181 (Fc fusion, VHH-Fc fusion in assay) VHH: EVQLVESGGGLVQPGGSLRLSCAASGFTLSSNWMGWFRQAPGKEREFVASVLRGGYTWYADSVKGRFTISADNSKNTAYLQMNSLKPEDTAVYYCARDAYYYGLWGQGTLVTVSS ?
428000 M⁻¹ s⁻¹
